# TEST_TARGET: T1, recombinant monkey CD25-His protein (monkey (cynomolgus), UniProt H6WS54 1-213)
# T1 construct: range 1-213; also called cynomolgus monkey (Cyno) CD25
# T1 sequence: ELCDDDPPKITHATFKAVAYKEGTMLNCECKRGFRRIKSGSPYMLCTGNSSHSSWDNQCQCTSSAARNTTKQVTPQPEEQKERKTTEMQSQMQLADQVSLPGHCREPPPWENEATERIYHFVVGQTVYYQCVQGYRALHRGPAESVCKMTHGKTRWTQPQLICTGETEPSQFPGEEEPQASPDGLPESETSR
# TEST: ELISA, plate coated with monkey CD25-His
Catalogue of EC50 readings, one per entry.
RECORDED_METRIC: EC50 (nM)

• cAb004 (antibody, human IgG1, V domains shown, also called mAb004/cAb004) VH: EVQLQQSGAELVRPGASVKLSCTASGFNIKDDYIQWVKQRPEQGLEWIGWIDPENGDTEYASKFQDKATITSDTSSNTAYLQLSSLTSEDTAVYYCAATTFYASNYGFAYWGQGTLVTVSA VL: DVVMTQTPLSLPVSLGDQASISCRSSQSLVHSNGNTYLHWYLQKPGQSPQLLIYKVSNRFSGVPDRFSGSGSGTDFTLKISRLEAEDLGVYFCSQSTHVPYTFGGGTKLEIK = 0.311
• cAb029 (antibody, human IgG1, V domains shown, also called mAb029/cAb029) VH: QVTLKESGPGILQPSQTLSLTCSFSGFSLSTFGMGVGWIRQPSGKGLEWLAHIWWDDDEYYNPALKSRLTISKDTSKNQVFLKIANVDTADTATYYCTRIMLTTGYFDVWGTGTTVTVSS VL: EIVLTQSPALMAASPGEKVTITCTVSSGITSSNLHWYQQKSETSPKPWIYGTSNLASGVPVRFSGSGSGTSYSLTISSMEAEDAATYYCQQWSSYPFTFGSGTRLEIK = 0.115
• cAb028 (antibody, human IgG1, V domains shown, also called mAb028/cAb028) VH: EVQLQQSGAELVRPGASVKLSCTASGFNIKNDYVHWVKQRPEQGLEWIGYIDPDNGDTEYASKFLGKATITADTSSNTAYLQLSSLTSEGTAVYYCTTDDTSYGMFACWGLGTLVTVSA VL: DVLMTQTPLSLPVSLGDQASISCRSSQSIVHSNGNTYLEWYLQKPGQSPKLLIYKVSNRFSGVPDRFSGSGSGTDFTLKISRVEAEDLGVYYCFQGSHVPWTFGGGTKLEIK = 0.23

Each recorded value in this set is attributed to patent US20230174670A1.
